Molecular target: JAK3 (Homo sapiens, UniProt P52333)
Construct: The Ramos B-cell line was acquired from ATCC (ATCC Catalog No. CRL-1596)
Sequence (P52333 whole entry): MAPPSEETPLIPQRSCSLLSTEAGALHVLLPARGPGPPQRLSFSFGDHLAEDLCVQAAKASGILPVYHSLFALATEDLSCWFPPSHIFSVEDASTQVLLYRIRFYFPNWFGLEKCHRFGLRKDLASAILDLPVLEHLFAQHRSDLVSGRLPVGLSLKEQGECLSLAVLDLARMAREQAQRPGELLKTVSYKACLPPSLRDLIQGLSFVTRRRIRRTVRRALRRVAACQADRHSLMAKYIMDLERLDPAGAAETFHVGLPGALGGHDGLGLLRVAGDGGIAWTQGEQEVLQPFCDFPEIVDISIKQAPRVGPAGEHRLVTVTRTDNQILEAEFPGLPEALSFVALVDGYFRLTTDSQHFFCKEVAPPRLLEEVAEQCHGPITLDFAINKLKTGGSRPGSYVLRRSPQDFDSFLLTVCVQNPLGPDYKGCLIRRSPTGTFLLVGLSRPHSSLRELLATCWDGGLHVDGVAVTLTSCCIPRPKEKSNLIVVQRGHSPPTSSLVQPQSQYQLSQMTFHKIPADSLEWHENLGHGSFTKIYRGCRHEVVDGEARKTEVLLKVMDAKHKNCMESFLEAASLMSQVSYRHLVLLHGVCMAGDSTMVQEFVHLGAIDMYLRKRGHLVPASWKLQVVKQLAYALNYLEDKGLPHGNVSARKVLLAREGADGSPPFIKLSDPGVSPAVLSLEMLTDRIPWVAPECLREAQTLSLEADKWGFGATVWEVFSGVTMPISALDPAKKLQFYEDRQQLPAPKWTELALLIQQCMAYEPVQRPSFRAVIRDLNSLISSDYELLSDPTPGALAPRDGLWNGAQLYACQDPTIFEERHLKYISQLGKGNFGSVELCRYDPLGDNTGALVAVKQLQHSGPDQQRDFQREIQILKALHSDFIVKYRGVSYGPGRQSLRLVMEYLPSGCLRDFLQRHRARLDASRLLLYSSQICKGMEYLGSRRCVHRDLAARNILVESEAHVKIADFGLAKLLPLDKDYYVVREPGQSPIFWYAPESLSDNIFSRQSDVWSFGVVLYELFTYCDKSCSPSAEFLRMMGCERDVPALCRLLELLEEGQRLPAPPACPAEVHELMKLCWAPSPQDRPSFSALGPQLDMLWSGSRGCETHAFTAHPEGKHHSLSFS
Assay: Assay for CD23 expression on Ramos B-cells stimulated by IL-4 (Table IV: ability to inhibit JAK3 activity)
Details: tested under conditions described in Example 3 (so in the source)
Counter-ions that a name gives are not always drawn.
IC50 by entry:

>  <compound>
COc1cc(Nc2ncc(F)c(Nc3ccc4oc(=O)[nH]c4c3)n2)cc(OC)c1C [Compound I-194, trifluoroacetate salt]

>  <recorded value>
500 to 5000 nM

$$$$
>  <compound>
COCCOc1ccc(Nc2ncc(C)c(Nc3ccc4oc(=O)[nH]c4c3)n2)c(F)c1OCCOC [Compound I-77, trifluoroacetate salt]

>  <recorded value>
< 500 nM

$$$$
>  <compound>
COC(=O)c1cnc(Nc2ccc(C)c(OC)c2)nc1Nc1ccc2oc(=O)[nH]c2c1 [Compound I-56, trifluoroacetate salt]

>  <recorded value>
> 10000 nM

$$$$
>  <compound>
CC(C)(C)c1ccc(Nc2ncc(F)c(Nc3ccc4oc(=O)[nH]c4c3)n2)cc1 [Compound I-201, trifluoroacetate salt]

>  <recorded value>
500 to 5000 nM

$$$$
>  <compound>
Cc1cnc(Nc2cc(C)c(C)c(C)c2)nc1Nc1cc(CN2CCNCC2)c2oc(=O)[nH]c2c1 [Compound I-95, ditrifluoroacetate salt]

>  <recorded value>
5000 to 10000 nM

$$$$
>  <compound>
O=C1CCCCc2cc(Nc3ncc(F)c(Nc4ccc5oc(=O)[nH]c5c4)n3)ccc21 [II-5, formate salt]

>  <recorded value>
< 500 nM

$$$$
>  <compound>
Cc1cc(Nc2nc(Nc3ccc(F)c(S(C)(=O)=O)c3)ncc2F)cc2[nH]c(=O)oc12 [Compound I-173, trifluoroacetate salt]

>  <recorded value>
< 500 nM

$$$$
>  <compound>
Cc1cc(Nc2nc(Nc3cccc(S(C)(=O)=O)c3)ncc2F)cc2[nH]c(=O)oc12 [Compound I-172, trifluoroacetate salt]

>  <recorded value>
< 500 nM

$$$$
>  <compound>
O=c1[nH]c2cc(Nc3nc(Nc4ccc(F)c(-c5ccncc5)c4)ncc3F)ccc2o1

>  <recorded value>
< 500 nM

$$$$
>  <compound>
Cc1cc(Nc2ncc(F)c(Nc3ccc4oc(=O)[nH]c4c3)n2)cc(C)c1C

>  <recorded value>
> 10000 nM

$$$$

Record NC(=O)c1ccc(Nc2ncc([N+](=O)[O-])c(Nc3ccc4oc(=O)[nH]c4c3)n2)cc1 [Compound I-60, trifluoroacetate salt] . Reported IC50: > 10000 nM

Record Cc1cc(Nc2ncc(F)c(Nc3cc(F)c4oc(=O)[nH]c4c3)n2)cc(C)c1C [Compound I-188, trifluoroacetate salt] . Reported IC50: < 500 nM

Record NC(=O)c1cccc(Nc2nccc(Nc3ccc4oc(=O)[nH]c4c3)n2)c1 [Compound I-3, trifluoroacetate salt] . Reported IC50: 500 to 5000 nM

Record COC(=O)c1cnc(Nc2ccccc2)nc1Nc1ccc2oc(=O)[nH]c2c1 [Compound I-39, trifluoroacetate salt] . Reported IC50: > 10000 nM
